Tested on: S. aureus ATCC 25923
Test: Broth microdilution assay, S. aureus
Type: cell-based, Staphylococcus aureus
Conditions: 50 µM, 24 h, inhibition of growth, mean ± SD
REPORTED PROPERTY: Inhibitory effect (%) S. aureus ATCC 25923
Express the result in % but write the number alone.

Please review the following examples before continuing.
CC(=O)OCC12CCC3(C(C)C)C1=C1C(CC4C5(C)CCC(OC(C)=O)C(C)(C)C5CCC4(C)C1(C)CC2)n1c(=O)n(Cc2ccccc2)c(=O)n13 (centres unmarked) ... 4.1
C=C(C)C1CCC2(C(=O)NC(CC(=O)O)C(=O)O)CCC3(C)C(CCC4C5(C)CCC(=O)C(C)(C)C5CCC43C)C12 [Compound 27, L-aspartyl amide of betulonic acid] ... 12.7
C=C(C)[C@@H]1CC[C@]2(COC(=O)c3cccnc3)CC[C@]3(C)[C@H](CC[C@@H]4[C@@]5(C)CC[C@H](O)C(C)(C)[C@@H]5CC[C@]43C)[C@@H]12 ... -17.7

Incoming: Request the reported Inhibitory effect (%) S. aureus ATCC 25923 associated with CC(=O)OCC12CCC3(C(C)C)C1=C1C(CC4C5(C)CCC(OC(C)=O)C(C)(C)C5CCC4(C)C1(C)CC2)n1c(=O)n(-c2ccccc2)c(=O)n13 (centres unmarked)
Outgoing: 12.7

Incoming: Now consider C=C(C)C1CCC2(CO)CCC3(C)C(CCC4C5(C)CCC(OC(C)=O)C(C)(C)C5CCC43C)C12 (centres unmarked) and answer again.
Outgoing: -16.3

====

Listed below: Inhibitory effect (%) C. albicans ATCC 90028 values for each entry.
Tested on: C. albicans ATCC 90028
Assay: Broth microdilution assay, C. albicans
Assay type: cell-based, Candida albicans
Conditions: 50 µM, 48 h at 35°C, inhibition of growth, mean ± SD
Express your answer in %, writing the number without its unit.

C=C(C)C1CCC2(C(=O)NC(CC(=O)O)C(=O)O)CCC3(C)C(CCC4C5(C)CCC(=O)C(C)(C)C5CCC43C)C12 [Compound 27, L-aspartyl amide of betulonic acid] ... 44.2
CCCCn1c(=O)n2n(c1=O)C1(C(C)C)CCC3(COC(C)=O)CCC4(C)C(=C31)C2CC1C2(C)CCC(OC(C)=O)C(C)(C)C2CCC14C (stereo not drawn) ... -12.0

# next molecule below
Incoming: Query: Inhibitory effect (%) C. albicans ATCC 90028; subject: COc1cccc(-n2c(=O)n3n(c2=O)C2(C(C)C)CCC4(COC(C)=O)CCC5(C)C(=C42)C3CC2C3(C)CCC(OC(C)=O)C(C)(C)C3CCC25C)c1 (stereo not drawn)
Outgoing: -1.1

====

System: E. coli ATCC 25922
Test: Broth microdilution assay, E. coli
Type: cell-based, Escherichia coli
Conditions: Escherichia coli, ATCC25922, 24 h; read-out: Inhibitory effect (%) E. coli ATCC 25922
REPORTED PROPERTY: inhibition at 50 µM (%)
Numbers only here, please. The scale is %.

Answered cases to consult:
C=C(C)[C@@H]1CC[C@]2(C=O)CC[C@]3(C)C(CCC4[C@@]5(C)CC[C@H](O)C(C)(C)C5CC[C@]43C)C12 (stereo partly shown) ... 2.7
C=C(C)[C@@H]1CC[C@]2(C(=O)O)CC[C@]3(C)[C@H](CC[C@@H]4[C@@]5(C)CC[C@H](O)C(C)(C)[C@@H]5CC[C@]43C)[C@@H]12 ... 20.2
CC(=O)OCC12CCC3(C(C)C)C1=C1C(CC4C5(C)CCC(OC(C)=O)C(C)(C)C5CCC4(C)C1(C)CC2)n1c(=O)n(-c2ccc4c(c2)OCO4)c(=O)n13 (stereo not shown) ... 3.4
C=C(C)C1CCC2(C=NO)CCC3(C)C(CCC4C5(C)CCC(O)C(C)(C)C5CCC43C)C12 (stereo not shown) ... 1.9
C=C(C)[C@@H]1CC[C@]2(COC(=O)COc3cc(C(C)C)ccc3C)CC[C@]3(C)[C@H](CC[C@@H]4[C@@]5(C)CC[C@H](O)C(C)(C)[C@@H]5CC[C@]43C)[C@@H]12 [Compound 4, betulinyl 28-carboxymethoxycarvacrolate] ... -1.2

Incoming: Given C=C(C)[C@@H]1CC[C@]2(C(=O)O)CC[C@]3(C)C(CCC4[C@@]5(C)CCC(=O)C(C)(C)C5CC[C@]43C)C12 (stereo partly shown) , state its recorded inhibition at 50 µM.
Outgoing: 9.1

Incoming: Here is the next compound: CCn1c(=O)n2n(c1=O)C1(C(C)C)CCC3(COC(C)=O)CCC4(C)C(=C31)C2CC1C2(C)CCC(OC(C)=O)C(C)(C)C2CCC14C (stereo not shown)
Outgoing: -3.7

Incoming: Same lookup for CC(C)[C@@H]1CC[C@]2(C(=O)O)CC[C@]3(C)[C@H](CC[C@@H]4[C@@]5(C)CCC(=O)C(C)(C)[C@@H]5CC[C@]43C)[C@@H]12 [Compound 24, dihydrobetulonic acid] , please.
Outgoing: 6.2

Incoming: Next up: CC(=O)OCC12CCC3(C(C)C)C1=C1C(CC4C5(C)CCC(OC(C)=O)C(C)(C)C5CCC4(C)C1(C)CC2)n1c(=O)n(-c2cccc([N+](=O)[O-])c2)c(=O)n13 (stereo not shown)
Outgoing: 8.8

Incoming: Entry C=C(C)[C@@H]1CC[C@]2(CO)CC[C@]3(C)[C@H](CC[C@@H]4[C@@]5(C)CC[C@H](O)C(C)(C)[C@@H]5CC[C@]43C)[C@@H]12 please
Outgoing: 1.3
